Values from ChEMBL document CHEMBL3856278

experiment_summary: Cytotoxicity against human HeLa cells assessed as decrease in cell viability after 72 hrs by CellTiter-Blue assay
Format: functional, cell-based

# smiles_repr, display_unit, IC50
data = [
    ("CC(=O)C(=O)N[C@@H]1/C=C(\\C)C=C[C@@H](O)C/C=C(C)/C=C/[C@@H](O)C[C@H]2OC(=O)[C@]1(C)C(=O)[C@@H]2C", "µM", 324),
]

----------
experiment_summary: Binding affinity to paclitaxel binding site of porcine microtubule after 1 hr by Michaelis-Menten plot analysis
Set-up: species or system Sus scrofa
applied_conditions: read-out: Kd(app)
observed_property: Kd (µM)

# smiles_repr, display_unit, reported_value
data = [
    ("CC(=O)C(=O)N[C@@H]1/C=C(\\C)C=C[C@@H](O)C/C=C(C)/C=C/[C@@H](O)C[C@H]2OC(=O)[C@]1(C)C(=O)[C@@H]2C", "µM", 50),
]
